assay: TOX21_p53_BLA_p4_viability: Viability Assessment in the Tox21 HCT-116 p53 Agonism Beta-lactamase Assay, Phase 4 (AID 2283597);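 further: hits lower the luminescence signal meaning cytotoxicity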
Results filed as inconclusive are left out. The source made the active and inactive calls. How the source made its calls: active means hit-call score of the fitted dose curve at least 0.9, where 1 is the maximum; inconclusive means response in the unintended direction; inactive means score below 0.9.
Respond using exactly one of the listed classes: yes (1) for active, no (0) for inactive

See these solved cases before continuing.
- Compound: "NC(=O)N=NC(N)=O"
  Category: "no (0)"
- Compound: "CCCNC(=O)NS(=O)(=O)c1ccc(Cl)cc1"
  Category: "no (0)"
- Compound: "O=C(Cl)c1cc(C(=O)Cl)cc(C(=O)Cl)c1"
  Category: "no (0)"
- Compound: "CCCOCCOCCOCCO"
  Category: "no (0)"
- Compound: "O=Cc1ccc(CO)o1"
  Category: "no (0)"
- Compound: "Nc1ccc(N)c(Cl)c1"
  Category: "no (0)"
- Compound: "CC1OC1C1CCC2(C)OC2C1 (stereo not drawn)"
  Category: "no (0)"

Next compound, please.
Fill in: this test's call for CC(C)c1ccc2c(c1)CC[C@H]1[C@](C)(CN)CCC[C@]21C is ___ yes (1)

----------
target: Cellular tumor antigen p53 (Homo sapiens); assay: ATG_p53_CIS: Attagene CIS-FACTORIAL HepG2 Assay for human p53 Transcription Factor (AID 2282994); settings: HepG2 p53 cis-element reporter, Attagene mRNA; actives raise or lower the signal
Calls of active or inactive are those of the source. Rule for the calls: active = hit-call score of the fitted dose curve at least 0.9, where 1 is the maximum; inactive = score below 0.9.
The categories you may choose from are y (active), n (inactive)

- Molecule: "O=C(/C=C/C=C/c1ccc2c(c1)OCO2)N1CCCCC1"
  Category: "n"

For c1c[nH]cn1 , which call appears in the assay record? n

# outcome recorded in this test, key = SCCc1cnccn1 y

Name the outcome recorded for COc1cc(NC(=O)CC(C)=O)c(OC)cc1Cl in the assay. n

Outcome logged for OC1CCCCCCCCCCC1 in this assay: n

Could you please tell me the result logged for CCCCCCCCCCOS(=O)(=O)O in this assay? n

Recorded call for CC(=O)OC(C)C ? n

So what was the verdict on CCOC(=O)Cc1cccc2ccccc12 in this test? n

----------
molecular target: Cellular tumor antigen p53 (Homo sapiens); assay: TOX21_p53_BLA_p3_ratio: Tox21 HCT-116 p53 Agonism Beta-lactamase Assay, Ratio, Phase 3 (AID 2283596)
Records with an inconclusive call do not appear. Calls of active or inactive are those of the source. The calls were made as follows: active = hit-call score of the fitted dose curve at least 0.9, where 1 is the maximum; inconclusive = response in the unintended direction; inactive = score below 0.9.
Returns: one label drawn from 1 for active, 0 for inactive

- Molecule: "c1ccc(CNCc2ccccc2)cc1"
  Study target: "Cellular tumor antigen p53 (Homo sapiens)"
  Category: 0
- Molecule: "O=C(O)c1ccccc1Nc1cccc(C(F)(F)F)c1"
  Study target: "Cellular tumor antigen p53 (Homo sapiens)"
  Category: 0
- Molecule: "C=CC(=O)OCCOC(=O)C=C"
  Study target: "Cellular tumor antigen p53 (Homo sapiens)"
  Category: 0
- Molecule: "Cc1cc(=O)n(-c2ccccc2)n1C"
  Study target: "Cellular tumor antigen p53 (Homo sapiens)"
  Category: 0
- Molecule: "Nc1ccc(N)c(Cl)c1"
  Study target: "Cellular tumor antigen p53 (Homo sapiens)"
  Category: 1

Test call, this compound: Cc1cccc(C(=O)O)c1 0

How did this test come out for C[Si](C)(CCCN)O[Si](C)(C)CCCN ? 0

# outcome recorded in this test, key = O=C(C(Cl)Cl)N1CCOC12CCCCC2 0

Assay result, entry CC1=Nc2ccc3ccccc3c2C1(C)C — outcome? 0

Lab log entry: Cc1ccc(C(C)(C)C)cc1 — outcome as called in the assay? 0

Returns: the outcome recorded for O=C1CCCC1 in this assay. 0

Could you please tell me the result logged for CC(C)COC(=O)C=Cc1ccccc1 in this assay? 0

How was COc1ccc([C@@H]2CC(=O)c3c(O)cc(O[C@@H]4O[C@H](CO[C@@H]5O[C@@H](C)[C@H](O)[C@@H](O)[C@H]5O)[C@@H](O)[C@H](O)[C@H]4O)cc3O2)cc1OC classified in this test? 0
